# Tgt: T1, Recombinant Human DLL4 (delta-like protein 4) (human, UniProt Q9NR61 27-524)
# T1 construct: Bought recombinant human DLL4 (R&D Systems Cat#1506-D4/CF), coated on the plate; also called rHuman DLL4; Delta-like 4
# Protocol text: ECL (MSD) 96-well plate assay, recombinant human DLL4 coated, Fab in solution
# reported ECL signal; entries follow
Assay metric: ECL signal

{"Binder": "Fab VH1-46_IGHD6-6*01_IGHJ1*01 S102A/S103P/S104F/H111F (H:APFF) & L6_IGKJ1*01 S28N/S30D/S31H N53P (Fab, V domains shown, Fab made in E. coli: heavy chain from Plasmid A (CH1, His6 and Flag tags), kappa light chain from Plasmid C (kappa CL); also called H:APFF & L:NDH N53P) VH: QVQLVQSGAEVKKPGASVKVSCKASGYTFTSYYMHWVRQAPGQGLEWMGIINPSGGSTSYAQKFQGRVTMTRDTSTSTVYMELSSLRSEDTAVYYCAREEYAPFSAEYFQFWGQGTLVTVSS VL: EIVLTQSPATLSLSPGERATLSCRASQNVDHYLAWYQQKPGQAPRLLIYDASPRATGIPARFSGSGSGTDFTLTISSLEPEDFAVYYCQQRSNWPPWTFGQGTKVEIKR", "Number": 18100}
{"Binder": "Fab VH1-46_IGHD6-6*01_IGHJ1*01 S102A/S103P/S104F/H111F (H:APFF) & L6_IGKJ1*01 S28N/S30D/S31H A55R (Fab, V domains shown, Fab made in E. coli: heavy chain from Plasmid A (CH1, His6 and Flag tags), kappa light chain from Plasmid C (kappa CL); also called H:APFF & L:NDH A55R) VH: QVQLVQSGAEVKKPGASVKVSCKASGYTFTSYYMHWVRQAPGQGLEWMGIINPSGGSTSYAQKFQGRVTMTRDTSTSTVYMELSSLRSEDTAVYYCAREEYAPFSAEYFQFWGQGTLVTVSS VL: EIVLTQSPATLSLSPGERATLSCRASQNVDHYLAWYQQKPGQAPRLLIYDASNRRTGIPARFSGSGSGTDFTLTISSLEPEDFAVYYCQQRSNWPPWTFGQGTKVEIKR", "Number": 9030}
{"Binder": "Fab VH1-46_IGHD6-6*01_IGHJ1*01 S102A/S103P/S104F/H111F (H:APFF) & L6_IGKJ1*01 S28N/S30D/S31H (L:NDH) (Fab, V domains shown, Parent template of this NNK series; Fab made in E. coli: heavy chain from Plasmid A (CH1, His6 and Flag tags), kappa light chain from Plasmid C (kappa CL); also called H:APFF & L:NDH) VH: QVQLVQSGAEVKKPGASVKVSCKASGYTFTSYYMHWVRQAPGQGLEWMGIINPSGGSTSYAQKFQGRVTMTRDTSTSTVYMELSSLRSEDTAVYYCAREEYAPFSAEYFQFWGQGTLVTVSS VL: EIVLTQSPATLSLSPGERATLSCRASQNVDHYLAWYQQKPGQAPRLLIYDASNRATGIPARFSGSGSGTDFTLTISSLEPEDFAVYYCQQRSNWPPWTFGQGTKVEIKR", "Number": 17200}

Data provenance: patent US20120316071A1
